- Assay overview: pKa of the lipid by TNS fluorescence
- Assay type: physicochemical
- Experimental context: pKa

Molecule	pKa
CCCCC/C=C\C/C=C\CCCCCCCCOCC(CN1CCOCCOCCOCC1)OCCOCCO[C@H]1CC[C@@]2(C)C(=CC[C@H]3[C@@H]4CC[C@H]([C@H](C)CCCC(C)C)[C@@]4(C)CC[C@@H]32)C1 (stereo partly shown)	5.38
CCCCC/C=C\C/C=C\CCCCCCCCOCC(CN1CCC(OC)C1)OCCO[C@H]1CC[C@@]2(C)C(=CC[C@H]3[C@@H]4CC[C@H]([C@H](C)CCCC(C)C)[C@@]4(C)CC[C@@H]32)C1 (stereo partly shown)	6.38
CCCCC/C=C\C/C=C\CCCCCCCCOCC(CN1CC=CCC1)OCCOCCO[C@H]1CC[C@@]2(C)C(=CCC3C2CC[C@@]2(C)C3CC[C@@H]2[C@H](C)CCCC(C)C)C1 (stereo partly shown)	5.9
CCCCC/C=C\C/C=C\CCCCCCCCOCC(CN1CCCC1c1ccccc1)OCCOCCO[C@H]1CC[C@@]2(C)C(=CC[C@H]3[C@@H]4CC[C@H]([C@H](C)CCCC(C)C)[C@@]4(C)CC[C@@H]32)C1 (stereo partly shown)	4.9

---

- Assay overview: pKa of the lipid by TNS fluorescence
- Type: physicochemical
- Experimental context: aqueous buffer series with fluorescent probe TNS, probe TNS, pKa of the cationic lipid; read-out: pKa

Compound	pKa
CCCCC/C=C\C/C=C\CCCCCCCCOCC(CN1CCC(O[Si](C)(C)C(C)(C)C)C1)OCCOCCO[C@H]1CC[C@@]2(C)C(=CC[C@H]3[C@@H]4CC[C@H]([C@H](C)CCCC(C)C)[C@@]4(C)CC[C@@H]32)C1 (stereo partly shown)	6.7

---

- Assay overview: Particle size and PDI by dynamic light scattering (Malvern Zetasizer)
- Type: physicochemical
- Design: unit not given here
- Experimental context: LNP formulation, Table 10

Molecule	Final size
CCCCC/C=C\C/C=C\CCCCCCCCOCC(CN1CCCCC1)OCCO[C@H]1CC[C@@]2(C)C(=CC[C@H]3[C@@H]4CC[C@H]([C@H](C)CCCC(C)C)[C@@]4(C)CC[C@@H]32)C1 (stereo partly drawn) [E0076]	86.03
CCCCC/C=C\C/C=C\CCCCCCCCCCOCC(CN1CCCCC1)OCCCOCCCO[C@H]1CC[C@@]2(C)C(=CC[C@H]3[C@@H]4CC[C@H]([C@H](C)CCCC(C)C)[C@@]4(C)CC[C@@H]32)C1 (stereo partly drawn) [E0096]	94.91
CCCCC/C=C\C/C=C\CCCCCCCCOC[C@@H](CN1CCC[C@@H]1C)OCCCOC(=O)CCC(=O)O[C@H]1CC[C@@]2(C)C(=CCC3C2CC[C@@]2(C)C3CC[C@@H]2[C@H](C)CCCC(C)C)C1 (stereo partly drawn) [E0161]	101.4

---

- Assay overview: Particle size and PDI by dynamic light scattering (Malvern Zetasizer)
- Type: physicochemical
- Experimental context: lipid/no neutral lipid/CHOL/AVANTI 880150P 50/0/46/4, N/P 3.43
Listing: PDI of selected molecules

Molecule	PDI
CCCCC/C=C\C/C=C\CCCCCCCCOCC(CN(C)C)OCCCCO[C@H]1CC[C@@]2(C)C(=CCC3C2CC[C@@]2(C)C3CC[C@@H]2[C@H](C)CCCC(C)C)C1 (some centres unmarked) [E0173, reference compound]	0.16
CCCCC/C=C\C/C=C\CCCCCCCCOCC(CN1CCC(O[Si](C)(C)C(C)(C)C)C1)OCCOCCO[C@H]1CC[C@@]2(C)C(=CC[C@H]3[C@@H]4CC[C@H]([C@H](C)CCCC(C)C)[C@@]4(C)CC[C@@H]32)C1 (some centres unmarked)	0.19
CCCCC/C=C\C/C=C\CCCCCCCCOC[C@H](CN1CCCCC1)OCCOCCO[C@H]1CC[C@@]2(C)C(=CCC3C2CC[C@@]2(C)C3CC[C@@H]2[C@H](C)CCCC(C)C)C1 (some centres unmarked)	0.15
CCCCC/C=C\C/C=C\CCCCCCCCOCC(Cn1ccnc1)OCCOCCO[C@H]1CC[C@@]2(C)C(=CCC3C2CC[C@@]2(C)C3CC[C@@H]2[C@H](C)CCCC(C)C)C1 (some centres unmarked)	0.057
CCCCC/C=C\C/C=C\CCCCCCCCOCC(CN1CCCC(C)C1)OCCOCCO[C@H]1CC[C@@]2(C)C(=CCC3C2CC[C@@]2(C)C3CC[C@@H]2[C@H](C)CCCC(C)C)C1 (some centres unmarked)	0.122
